molecular target: SIRT2 (Homo sapiens)
Sequence (Q8IXJ6 whole entry): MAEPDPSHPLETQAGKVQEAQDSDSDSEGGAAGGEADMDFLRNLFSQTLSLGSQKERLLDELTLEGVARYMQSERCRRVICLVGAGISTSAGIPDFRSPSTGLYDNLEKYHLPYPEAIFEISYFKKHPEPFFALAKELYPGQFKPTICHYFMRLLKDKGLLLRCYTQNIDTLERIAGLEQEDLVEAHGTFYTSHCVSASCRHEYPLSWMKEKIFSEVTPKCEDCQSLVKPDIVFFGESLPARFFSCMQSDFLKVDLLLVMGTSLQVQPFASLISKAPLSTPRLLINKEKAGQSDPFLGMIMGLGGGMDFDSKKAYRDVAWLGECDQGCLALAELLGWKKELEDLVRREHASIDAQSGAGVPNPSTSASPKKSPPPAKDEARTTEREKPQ
ENDPOINT_LABEL: IC50

What measured IC50 is associated with CCCCCCCCCCC[C@H]1O[C@@H]1C(=O)CCCCC[C@@H]1NC(=O)[C@H]2CCCCN2C(=O)[C@H](Cc2ccccc2)NC(=O)[C@H](Cc2ccccc2)NC1=O on SIRT2 (Homo sapiens)?
~25 µM

Data provenance is paper PMC10127203.
